tested on: SK-MEL-28 melanoma; assay: NCI-60 one-dose screen, 48 h (100 = growth as untreated, 0 = no growth, -100 = all killed); settings: 10 µM unless noted
This is part of a sample that, as a whole, favours compounds with a hit. Of some 83,000 tested, about 20% had one in any assay.
EXPERIMENTAL ENDPOINT: growth (%)
The reply should contain only the number, in %.

What value of measured growth is listed for COC(=O)c1cc(-c2ccc(S(C)(=O)=O)cc2)[nH]c1N/N=C/c1c(Cl)cccc1Cl ?
28.2

Check N#Cc1c(-c2ccc(Cl)cc2)nc(SCC(=O)NC2=NN=C(c3ccccc3)CS2)[nH]c1=O too.
76.3

Please answer likewise for O=C(O)[C@@H]1c2ccccc2-c2ccccc2[C@H]1C(=O)O
102

# iterate: COC(=O)c1c2c(c(C)[n+]([O-])c1C)C(=O)C=C(NCc1ccc(Br)cc1)C2=O
-39.6

Same thing, different molecule: S=C(Nc1ccc(-c2nc(N3CCOCC3)c3cccn3n2)cc1)Nc1cccnc1
45.9
